# experimental_details: Stability in liver microsomes
# Format: in vitro ADME, mouse
# cond: male, CD-1, mouse, liver microsomes, pH 7.4, with NADPH regeneration system, 1.0 µM, 0.5 mg/mL microsomes; read-out: half-life of degradation
# Experimental: The metabolic assays were performed based on a previously described method. […] The final organic (ACN) concentration in the incubation tubes was 1%. […] Samples (50 μL) were removed at t = 0 (immediately after reaction start), 5, 10, 20, 30, and 60 min. […]
For each record, write down the corresponding half-life at 1 µM.
One number for each entry, in min.

Provide half-life at 1 µM values for the following items, in order.
1. COc1c(Br)cc(/C=C/C(=O)NCCCNCCCCN)cc1Br
2. COc1c(Br)cc(/C=C/C(=O)NCCCNCCCCNCCCN)cc1Br

**A:**
[42.8, 38.2]
